Exercise: state measured A450 for each of the binders provided.
Biological target: T1, Human Id1: Histidine (human, UniProt P41134 1-155, limits assumed)
T1 construct: Fusion protein made in E. coli from vector pGW07; also called h-Id1: his; not shown: His tag
T1 sequence (looked up): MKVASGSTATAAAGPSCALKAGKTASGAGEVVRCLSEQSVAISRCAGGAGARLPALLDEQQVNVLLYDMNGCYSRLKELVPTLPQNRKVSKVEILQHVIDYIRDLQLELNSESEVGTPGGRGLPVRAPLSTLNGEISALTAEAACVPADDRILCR
Experiment: ELISA, Ab 0.050 µg/ml
Answers are plain numbers, in A450.

Recorded A450, per entry:
• rabbit monoclonal anti-mouse/human Id3, clone #BCH-4/#16-1 (antibody, V domains shown, Rabbit IgG from a rabbit hybridoma; also called m/h Id3 MoAb 16-1) VH: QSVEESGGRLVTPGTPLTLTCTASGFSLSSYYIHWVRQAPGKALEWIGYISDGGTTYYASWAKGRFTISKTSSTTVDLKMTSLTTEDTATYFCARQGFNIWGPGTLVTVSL VL: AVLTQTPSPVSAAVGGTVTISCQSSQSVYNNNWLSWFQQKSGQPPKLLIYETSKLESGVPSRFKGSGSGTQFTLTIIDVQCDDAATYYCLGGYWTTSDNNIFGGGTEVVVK = 0.047
• rabbit monoclonal anti-mouse/human Id3, clone #BCH-4/#42-1 (antibody, V domains shown, Rabbit IgG from a rabbit hybridoma; also called m/h Id3 MoAb 42-1) VH: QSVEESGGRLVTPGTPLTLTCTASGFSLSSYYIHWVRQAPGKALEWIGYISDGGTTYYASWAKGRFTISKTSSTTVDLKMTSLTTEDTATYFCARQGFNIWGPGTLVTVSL VL: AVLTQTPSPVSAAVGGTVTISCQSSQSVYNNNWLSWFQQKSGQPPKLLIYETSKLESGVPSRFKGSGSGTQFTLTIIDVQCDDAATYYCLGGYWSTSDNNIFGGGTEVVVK = 0.045

Could you now look at the following binder, please?
Query string: Give A450 for rabbit monoclonal anti-mouse/human Id3, clone #BCH-4/#17-3 (antibody, V domains shown, Rabbit IgG from a rabbit hybridoma; also called m/h Id3 MoAb 17-3; BCH-3/#17-3) VH: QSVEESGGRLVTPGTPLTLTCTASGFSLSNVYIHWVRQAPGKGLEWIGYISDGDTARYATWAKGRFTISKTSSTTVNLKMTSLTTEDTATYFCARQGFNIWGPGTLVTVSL VL: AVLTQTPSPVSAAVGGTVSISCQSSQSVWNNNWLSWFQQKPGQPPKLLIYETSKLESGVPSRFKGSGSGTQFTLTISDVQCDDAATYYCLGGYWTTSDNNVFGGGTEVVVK
Result string: 0.044
